The molecules below each have a reported IC50 tested on Coagulation factor X (Homo sapiens, UniProt P00742); the values come from various publications.
Quantity kind: IC50 (nM)

IC50 measured on CN(C)C(=N)c1ccccc1-c1ccc(C(=O)Nc2ccc(Cl)cc2C(=O)Nc2ccc(Cl)cn2)cc1 = 0.2

(I) COC(=O)C(Cc1cccc(C(=N)N)c1)C(/C=C/c1ccccc1)NC(=O)c1ccc(Oc2ccccc2)cc1 (stereo not drawn)
(II) Cc1cc2cc(N/C(=N\C(=O)c3ccno3)N[C@H]3CCCCN(CC(=O)N4CCCC4)C3=O)ccc2o1
(III) N=C(N)N1CCc2ccc(OCC3CCN(Cc4cccc(N)c4)CC3)cc2C1
(IV) CC(=O)N1CCC(NC(=O)c2nc3c(s2)CN(C)CC3)C(NC(=O)c2cc3cc(Cl)ccc3[nH]2)C1 (racemic)
With regard to IC50, arrange the entries in ascending order, please. # list labels per requested ordering
II, IV, I, III
